Target: JAK3 (Homo sapiens)
Construct: 5 μl of catalytic domain recombinant Kinase enzyme+Tyr peptide substrate (Invitrogen, CA)
Sequence (P52333 822-1111 limits assumed): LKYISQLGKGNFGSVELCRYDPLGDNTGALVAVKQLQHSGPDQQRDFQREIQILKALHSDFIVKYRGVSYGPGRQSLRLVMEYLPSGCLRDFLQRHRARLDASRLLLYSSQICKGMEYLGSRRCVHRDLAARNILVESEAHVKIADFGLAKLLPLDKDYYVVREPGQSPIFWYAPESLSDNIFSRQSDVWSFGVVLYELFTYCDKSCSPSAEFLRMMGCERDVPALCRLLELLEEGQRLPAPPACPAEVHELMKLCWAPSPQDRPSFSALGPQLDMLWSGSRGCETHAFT
Assay: Z'-LYTE kinase assay JAK3
Where a name gives a salt, the structure may show the parent alone.
readout.type: IC50

// worked examples, IC50 included
compound: CC(=O)N1CCN(c2ccc(Nc3cc(NCc4ccccc4)c(C(N)=O)cn3)cc2)CC1
IC50: 0.01 to 0.1 µM

compound: NC(=O)c1cnc(Nc2ccc(N3CCCCC3=O)cc2)cc1NCc1cccc(F)c1
IC50: 0.001 to 0.01 µM

compound: NC(=O)c1cnc(Nc2ccc(N3CCCCC3)cc2)cc1NCc1ccccc1F
IC50: 0.01 to 0.1 µM

compound: COCC(=O)N1CCC[C@H](CNc2cc(Nc3ccc(OC)cc3)ncc2C(N)=O)C1
IC50: 0.01 to 0.1 µM

compound: C[N+]1(C)CCC(c2ccc(Nc3cc(NCc4cccc(F)c4)c(C(N)=O)cn3)cc2)CC1 [Example 78, formate]
IC50: 0.001 to 0.01 µM

Hi there! I need IC50 for each item below, if you can.
1. Cc1cc(Nc2cc(NCc3cccc4cc[nH]c34)c(C(N)=O)cn2)ccc1C(=O)N1CCCC1
2. NC(=O)c1cnc(Nc2ccc(OC(F)F)cc2)cc1NCc1cccc2[nH]ccc12
3. CC(=O)N1CCC[C@H](CNc2cc(Nc3ccc(NS(=O)(=O)N(C)C)cc3)ncc2C(N)=O)C1
4. CCC(=O)N1CCC(c2ccc(Nc3cc(NCc4ccccn4)c(C(N)=O)cn3)cc2)CC1
5. CN(C)C(=O)c1cc(Nc2cc(NCc3ccccc3)c(C(N)=O)cn2)ccc1N(C)C
6. CC(=O)N1CCN(c2ccc(Nc3cc(NCC4CCCC4)c(C(N)=O)cn3)cc2)CC1
7. CCC(=O)N(C)c1ccc(Nc2cc(NCc3cncc(F)c3)c(C(N)=O)cn2)cc1

["0.001 to 0.01 µM", "0.01 to 0.1 µM", "0.01 to 0.1 µM", "0.01 to 0.1 µM", "0.01 to 0.1 µM", "0.001 to 0.01 µM", "0.01 to 0.1 µM"]

* * *

Molecular target: JAK2 (Homo sapiens)
Construct: 5 μl of catalytic domain recombinant Kinase enzyme+Tyr peptide substrate (Invitrogen, CA)
Sequence (O60674 849-1124 limits assumed): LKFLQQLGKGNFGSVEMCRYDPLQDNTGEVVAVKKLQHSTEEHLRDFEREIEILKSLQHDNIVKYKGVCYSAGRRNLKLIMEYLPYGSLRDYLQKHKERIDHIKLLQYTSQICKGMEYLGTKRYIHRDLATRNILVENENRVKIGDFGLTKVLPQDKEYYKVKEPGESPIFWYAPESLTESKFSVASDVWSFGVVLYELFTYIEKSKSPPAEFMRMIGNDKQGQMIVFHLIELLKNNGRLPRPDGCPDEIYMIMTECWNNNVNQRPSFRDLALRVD
Assay: Z'-LYTE kinase assay JAK2
Would you kindly list IC50 for each of these compounds?

// worked examples, IC50 included
compound.structure: CCC(=O)N1CCC(c2ccc(Nc3cc(NCc4cccc5ccsc45)c(C(N)=O)cn3)cc2)CC1
target.or.system: JAK2 (Homo sapiens)
IC50: 100 to 1000 nM

compound.structure: CC(=O)N1CCN(c2ccc(Nc3cc(NCc4ccc(F)cc4F)c(C(N)=O)cn3)cc2)CC1
target.or.system: JAK2 (Homo sapiens)
IC50: 100 to 1000 nM

compound.structure: CCC(=O)N1CC(c2ccc(Nc3cc(NCc4cccc(F)n4)c(C(N)=O)cn3)cc2)C1
target.or.system: JAK2 (Homo sapiens)
IC50: 100 to 1000 nM

compound.structure: CC(=O)N1CCN(c2ccc(Nc3cc(NCC(C)C)c(C(N)=O)cn3)cc2)CC1
target.or.system: JAK2 (Homo sapiens)
IC50: 100 to 1000 nM

compound.structure: COCC(=O)N1CCC[C@@H](CNc2cc(Nc3ccc(OC)cc3)ncc2C(N)=O)C1
target.or.system: JAK2 (Homo sapiens)
IC50: > 1000 nM

Hi there! I need IC50 for each item below, if you can.
1. CC(=O)N1CCN(c2ccc(Nc3cc(NCCc4ccccc4)c(C(N)=O)cn3)cc2)CC1
2. NC(=O)c1cnc(Nc2cccc(OCCN3CCCC3)c2)cc1N[C@H](CO)c1ccccc1
3. CC(C)c1cccc(Nc2cc(NCc3ccccc3F)c(C(N)=O)cn2)c1

["100 to 1000 nM", "100 to 1000 nM", "> 1000 nM"]

Hi there! I need IC50 for each item below, if you can.
1. CC(=O)N1CCN(c2ccc(Nc3cc(NCc4cccnc4)c(C(N)=O)cn3)cc2)CC1
2. COc1ccc(Nc2cc(NCc3ncccn3)c(C(N)=O)cn2)cc1

1. 100 to 1000 nM
2. > 1000 nM

Hi there! I need IC50 for each item below, if you can.
1. CCC(=O)N(C)c1ccc(Nc2cc(NCc3cncc(F)c3)c(C(N)=O)cn2)cc1
2. COC(=O)N1CCC[C@@H](CNc2cc(Nc3ccc(OC)cc3)ncc2C(N)=O)C1

["100 to 1000 nM", "> 1000 nM"]
